System: Liver
Recorded conditions: mouse, microsomes
Description: Intrinsic clearance in mouse liver microsomes assessed per mg of protein
I'd appreciate it if you marked entries yes (1) when CLH is lower than 5 µL/min and no (0) when it is not.

// known answers, use as guide
[[record]]
smiles_text = "NCCNC(=O)C[C@H]1CC[C@]2(CC1)OO[C@]1(O2)C2CC3CC(C2)CC1C3"
assayed_target = "Liver"
answer_label = "no (0)"

[[record]]
smiles_text = "CC(C)(CN)CNC(=O)C[C@H]1CC[C@]2(CC1)OO[C@]1(O2)C2CC3CC(C2)CC1C3"
assayed_target = "Liver"
answer_label = "yes (1)"

[[record]]
smiles_text = "O=C(O)Cc1ccccc1Nc1c(Cl)cccc1Cl"
assayed_target = "Liver"
answer_label = "no (0)"

[[record]]
smiles_text = "CC(C)(N)CNC(=O)C[C@H]1CC[C@]2(CC1)OO[C@]1(O2)C2CC3CC(C2)CC1C3"
assayed_target = "Liver"
answer_label = "no (0)"

[[record]]
smiles_text = "NC1CCN(C(=O)C[C@H]2CC[C@]3(CC2)OO[C@]2(O3)C3CC4CC(C3)CC2C4)CC1"
assayed_target = "Liver"
answer_label = "yes (1)"


Does `NC(=O)CNC(=O)C[C@H]1CC[C@]2(CC1)OO[C@]1(O2)C2CC3CC(C2)CC1C3` have CLH strictly under 5 µL/min?
no (0)

Decide: CLH of `O=C(C[C@H]1CC[C@]2(CC1)OO[C@]1(O2)C2CC3CC(C2)CC1C3)N1CCNCC1` strictly below 5 µL/min?
no (0)

API: query returns whether the compound falls strictly under 5 µL/min in CLH. Query: `Cc1ncc2n1-c1ccc(Cl)cc1C(c1ccccc1F)=NC2`
no (0)

----------
Experiment notes: Half life in mouse liver microsomes
Assay type: ADME, microsome
Recorded conditions: liver microsomes
List of half-life values.
A number alone suffices; assume h.

[[record]]
molecule = "CC(C)(N)CNC(=O)C[C@@H]1CCC[C@]2(C1)OOC1(O2)C2CC3CC(C2)CC1C3 (stereo partly specified)"
measured = 2.82

[[record]]
molecule = "CC(C)(CN)CNC(=O)C[C@@H]1CCC[C@]2(C1)OOC1(O2)C2CC3CC(C2)CC1C3 (stereo partly specified)"
measured = 1.07

[[record]]
molecule = "O=C(C[C@@H]1CCC[C@]2(C1)OOC1(O2)C2CC3CC(C2)CC1C3)N1CCNCC1 (stereo partly specified)"
measured = 0.425

[[record]]
molecule = "NC1CCN(C(=O)C[C@@H]2CCC[C@]3(C2)OOC2(O3)C3CC4CC(C3)CC2C4)CC1 (stereo partly specified)"
measured = 1.41

[[record]]
molecule = "NC(=O)CNC(=O)C[C@@H]1CCC[C@]2(C1)OOC1(O2)C2CC3CC(C2)CC1C3 (stereo partly specified)"
measured = 0.622


If you can, please state the reported half-life value of NCCNC(=O)C[C@@H]1CCC[C@]2(C1)OOC1(O2)C2CC3CC(C2)CC1C3 (stereo partly specified) .
1.41

----------
Experiment notes: Half life in mouse liver microsomes in absence of NADPH
Type: ADME, microsome
Recorded conditions: liver microsomes
Observation type: half-life (h)
Give just the number in h; leave the unit off.

Return reported half-life; argument: NCCNC(=O)C[C@@H]1CCC[C@]2(C1)OOC1(O2)C2CC3CC(C2)CC1C3 (stereo partly specified)
2.27
